Origin of the recorded values: paper PMC5507300

Test system: E. coli GYR108 GyrB L470I/V467L
Test: microbe, parasite or virus in culture
Type: cell-based
Details: Escherichia coli
PROPERTY: MIC (µg/mL)
Give a bare numeral; the unit µg/mL is implied.

CN(C)[C@@H]1C(O)=C(C(N)=O)C(=O)[C@@]2(O)C(O)=C3C(=O)c4c(O)cccc4[C@@](C)(O)[C@H]3C[C@@H]12 | 0.5
O=C(O)c1cn(C2CC2)c2cc(N3CCNCC3)c(F)cc2c1=O | 0.0039
CO[C@@H]1[C@@H](OC(N)=O)[C@@H](O)[C@H](Oc2ccc3c(O)c(NC(=O)c4ccc(O)c(CC=C(C)C)c4)c(=O)oc3c2C)OC1(C)C | 2

Look at this molecule and give its reported MIC. Cn1ncc2cc(-c3nnnn3C3CCN(C(=O)Nc4ccc(Cl)c(Cl)c4)CC3)ccc21
2

Please look up its MIC: COc1cc(Cc2cnc(N)nc2N)cc(OC)c1OC
0.125

----------
Test system: P. aeruginosa(effluxΔ) MB5890
Test: microbe, parasite or virus in culture
Format: cell-based
Conditions: Pseudomonas aeruginosa
PROPERTY: MIC

Recorded MIC, per entry:
COc1ccc(C)cc1NC(=O)N1CCC(n2nncc2-c2ccc3c(cnn3C)c2)CC1 [MRL-770] | 4 µg/mL
CN(C)[C@@H]1C(O)=C(C(N)=O)C(=O)[C@@]2(O)C(O)=C3C(=O)c4c(O)cccc4[C@@](C)(O)[C@H]3C[C@@H]12 [tetracycline] | 0.25 µg/mL
CO[C@H]1/C=C/O[C@@]2(C)Oc3c(C)c(O)c4c(O)c(c(/C=N/N5CCN(C)CC5)c(O)c4c3C2=O)NC(=O)/C(C)=C\C=C\[C@H](C)[C@H](O)[C@@H](C)[C@@H](O)[C@@H](C)[C@H](OC(C)=O)[C@@H]1C [rifampicin] | 32 µg/mL
Cn1ncc2cc(-c3nnnn3C3CCN(C(=O)Nc4ccc(Cl)c(Cl)c4)CC3)ccc21 [MRL-1082] | 0.25 µg/mL
CO[C@@H]1[C@@H](OC(N)=O)[C@@H](O)[C@H](Oc2ccc3c(O)c(NC(=O)c4ccc(O)c(CC=C(C)C)c4)c(=O)oc3c2C)OC1(C)C [novobiocin] | 64 µg/mL

// moving on: another record for MIC
Could you tell me which MIC is on file for Cn1ncc2cc(-c3cnnn3C3CCN(C(=O)Nc4cc(Cl)cc(Cl)c4)CC3)ccc21 [MRL-423] ?
1 µg/mL

----------
Test system: A. baumannii ΔlpxC MB9796
Label criterion met when MIC < 0.5 µg/mL; otherwise criterion not met.

Example results:
CN(C)[C@@H]1C(O)=C(C(N)=O)C(=O)[C@@]2(O)C(O)=C3C(=O)c4c(O)cccc4[C@@](C)(O)[C@H]3C[C@@H]12 | criterion met
CO[C@H]1/C=C/O[C@@]2(C)Oc3c(C)c(O)c4c(O)c(c(/C=N/N5CCN(C)CC5)c(O)c4c3C2=O)NC(=O)/C(C)=C\C=C\[C@H](C)[C@H](O)[C@@H](C)[C@@H](O)[C@@H](C)[C@H](OC(C)=O)[C@@H]1C | criterion met
COc1ccc(C)cc1NC(=O)N1CCC(n2nncc2-c2ccc3c(cnn3C)c2)CC1 | criterion not met

Regarding C[C@H]1COc2c(N3CCN(C)CC3)c(F)cc3c(=O)c(C(=O)O)cn1c23 , kindly confirm whether its MIC is beneath 0.5 µg/mL.
criterion met

# TODO verify MIC < 0.5 µg/mL strictly for this molecule: CO[C@@H]1[C@@H](OC(N)=O)[C@@H](O)[C@H](Oc2ccc3c(O)c(NC(=O)c4ccc(O)c(CC=C(C)C)c4)c(=O)oc3c2C)OC1(C)C
criterion met

Lab note: confirm whether the reported MIC for this molecule is below 0.5 µg/mL, equality not counting. molecule: O=C(O)c1cn(C2CC2)c2cc(N3CCNCC3)c(F)cc2c1=O
criterion met
